molecular target: Beta-secretase 1 (Homo sapiens, UniProt P56817); test: Inhibition of BACE1 in human HEK293 cells overexpressing APP with Swedish mutation assessed as inhibition of amyloid beta 40 production; format: cell-based; conditions: read-out: IC50
Sequence (P56817 whole entry): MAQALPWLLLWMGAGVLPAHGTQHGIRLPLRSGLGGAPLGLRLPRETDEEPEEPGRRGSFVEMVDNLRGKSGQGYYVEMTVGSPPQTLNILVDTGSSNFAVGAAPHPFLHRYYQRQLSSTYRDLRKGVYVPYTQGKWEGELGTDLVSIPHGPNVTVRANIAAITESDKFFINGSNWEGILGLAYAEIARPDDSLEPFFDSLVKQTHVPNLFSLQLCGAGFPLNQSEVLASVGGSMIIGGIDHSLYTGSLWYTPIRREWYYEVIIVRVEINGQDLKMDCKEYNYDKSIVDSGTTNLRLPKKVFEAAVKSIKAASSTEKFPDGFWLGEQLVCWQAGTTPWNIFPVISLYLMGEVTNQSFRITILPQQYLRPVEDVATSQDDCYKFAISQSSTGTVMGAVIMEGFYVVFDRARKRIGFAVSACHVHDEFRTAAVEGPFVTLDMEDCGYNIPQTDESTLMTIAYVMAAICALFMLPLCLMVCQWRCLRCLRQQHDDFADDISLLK
READOUT_TYPE: pIC50
The read-out pIC50 is expressed as -log10 of concentration in moles per litre.

Check out these entries, answers already filled in.
C=CCO/N=C(/C)c1cc(C(=O)N[C@@H](Cc2cc(F)cc(F)c2)[C@H](O)CNCc2cccc(OC)c2)cc(N(c2ccccc2)S(C)(=O)=O)c1 = 6.79
COc1cccc(CNC[C@@H](O)[C@H](Cc2cc(F)cc(F)c2)NC(=O)c2cccc(C(=O)N[C@H](C)c3ccccc3)c2)c1 = 6.70
CO/N=C(\C)c1cc(C(=O)N[C@@H](Cc2cc(F)cc(F)c2)[C@H](O)CNCc2cccc(OC)c2)cc(N(c2ccccc2)S(C)(=O)=O)c1 = 7.07
CCCN(CCC)C(=O)c1cc(C(=O)N[C@@H](Cc2cc(F)cc(F)c2)[C@H](O)CNCc2cccc(OC)c2)cc(S(=O)(=O)c2ccccc2)c1 = 6.83
CCCO/N=C(/C)c1cc(C(=O)N[C@@H](Cc2cc(F)cc(F)c2)[C@H](O)CNCc2cccc(OC)c2)cc(N(c2ccccc2)S(C)(=O)=O)c1 = 6.74
CCCN(CCC)C(=O)c1cccc(C(=O)N[C@@H](Cc2cc(F)cc(F)c2)[C@H](O)CNCc2cccc(OC)c2)c1 = 7.10
CCCN(CCC)C(=O)c1cc(CC(C)O)cc(C(=O)N[C@@H](Cc2cc(F)cc(F)c2)[C@H](O)CNCc2cccc(OC)c2)c1 (stereo partly drawn) = 7.47
CCCN(CCC)C(=O)c1cc(Oc2ccc(F)cc2)cc(C(=O)N[C@@H](Cc2cc(F)cc(F)c2)[C@H](O)CNCc2cccc(OC)c2)c1 = 7.03

Query: Fill in the recorded pIC50 for this molecule, with Beta-secretase 1 (Homo sapiens, UniProt P56817) as test system: `CCCN(CCC)C(=O)c1cc(C(=O)N[C@@H](Cc2cc(F)cc(F)c2)[C@H](O)CNCc2cccc(OC)c2)cc(/C(C)=N\O)c1`
Reply: 7.57

Query: Fill in the recorded pIC50 for this molecule, with Beta-secretase 1 (Homo sapiens, UniProt P56817) as test system: COc1cccc(CNC[C@@H](O)[C@H](Cc2cc(F)cc(F)c2)NC(=O)c2cc(C(=O)N[C@H](C)c3ccccc3)cc(C(C)O)c2)c1 (stereo partly drawn)
Reply: 7.04

----------
biological target: Beta-secretase 1 (Homo sapiens); assay: Binding affinity to BACE assessed as displacement of [3H]BMS-599240; details: read-out: IC50
// pIC50 lookup, one value per entry
The read-out pIC50 is expressed as -log10 of concentration in moles per litre.

Check out these entries, answers already filled in.
COc1cccc(CNC[C@@H](O)[C@H](Cc2cc(F)cc(F)c2)NC(=O)c2cccc(N(C)S(C)(=O)=O)c2)c1 = 7.12
C=CCO/N=C(/C)c1cc(C(=O)N[C@@H](Cc2cc(F)cc(F)c2)[C@H](O)CNCc2cccc(OC)c2)cc(N(c2ccccc2)S(C)(=O)=O)c1 = 7.57
CO/N=C(/C)c1cc(C(=O)N[C@@H](Cc2cc(F)cc(F)c2)[C@H](O)CNCc2cccc(OC)c2)cc(C(=O)N[C@H](C)c2ccccc2)c1 = 7.49

Continue with the next molecule.
Query: Which pIC50 value belongs to COc1cccc(CNC[C@@H](O)[C@H](Cc2cc(F)cc(F)c2)NC(=O)c2cc(C(C)O)cc(N3CCCCS3(=O)=O)c2)c1 (some centres undefined) ?
Reply: 7.37
